Target: Stb5 (UniProt P38699)
Sequence: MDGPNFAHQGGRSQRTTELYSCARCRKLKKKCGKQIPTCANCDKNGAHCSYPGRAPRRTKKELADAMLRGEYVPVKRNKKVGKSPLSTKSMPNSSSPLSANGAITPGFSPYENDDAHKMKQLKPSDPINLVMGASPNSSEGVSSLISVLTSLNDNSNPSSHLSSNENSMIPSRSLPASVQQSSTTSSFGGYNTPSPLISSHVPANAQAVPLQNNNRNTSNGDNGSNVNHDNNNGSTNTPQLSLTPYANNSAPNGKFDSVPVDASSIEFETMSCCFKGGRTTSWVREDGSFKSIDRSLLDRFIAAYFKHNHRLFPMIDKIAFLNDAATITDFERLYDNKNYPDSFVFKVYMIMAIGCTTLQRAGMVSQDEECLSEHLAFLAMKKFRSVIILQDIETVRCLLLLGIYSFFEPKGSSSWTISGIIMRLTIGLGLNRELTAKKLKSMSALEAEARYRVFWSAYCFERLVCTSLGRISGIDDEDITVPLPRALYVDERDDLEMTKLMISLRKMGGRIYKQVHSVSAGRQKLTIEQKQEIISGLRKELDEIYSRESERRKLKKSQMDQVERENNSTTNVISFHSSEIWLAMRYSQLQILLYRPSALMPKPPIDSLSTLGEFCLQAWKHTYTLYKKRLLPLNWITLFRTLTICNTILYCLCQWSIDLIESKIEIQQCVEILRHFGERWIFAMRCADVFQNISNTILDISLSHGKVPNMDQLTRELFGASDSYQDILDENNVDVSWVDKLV
Assay: PBM E-score (8-mer binding enrichment) (E-score (-0.5 to 0.5)); higher = stronger / more preferred TF binding
Details: protein concentration: 200 nM; construct: GST-full length
Over roughly 33,000 sequences, “E-score (-0.5 to 0.5)” has its median near -0.054; the highest 2% begin near 0.35. The full list was thinned out, with the highest values kept by preference.
Label criterion met when PBM E-score >= -0.01; otherwise criterion not met.

- macromoleculeSequence: "GGCTTCTA"
  classAssignment: "criterion not met"
- macromoleculeSequence: "CAACGAAC"
  classAssignment: "criterion met"
- macromoleculeSequence: "AAGATCGC"
  classAssignment: "criterion not met"
- macromoleculeSequence: "ACCCCAGC"
  classAssignment: "criterion not met"
- macromoleculeSequence: "CCGATCGG"
  classAssignment: "criterion met"
- macromoleculeSequence: "GTGGCACA"
  classAssignment: "criterion not met"
- macromoleculeSequence: "GACATCCA"
  classAssignment: "criterion not met"
- macromoleculeSequence: "CAGTCCGA"
  classAssignment: "criterion met"
- macromoleculeSequence: "GCTCTGAA"
  classAssignment: "criterion not met"
- macromoleculeSequence: "ACATAGAA"
  classAssignment: "criterion not met"
- macromoleculeSequence: "ACAAGTGT"
  classAssignment: "criterion not met"
- macromoleculeSequence: "ACCGATAG"
  classAssignment: "criterion met"
- macromoleculeSequence: "CGCTTCCG"
  classAssignment: "criterion met"
- macromoleculeSequence: "CGTCGTAC"
  classAssignment: "criterion met"
- macromoleculeSequence: "AACCATCG"
  classAssignment: "criterion met"
- macromoleculeSequence: "GAGATTGC"
  classAssignment: "criterion met"
- macromoleculeSequence: "ATACCGAA"
  classAssignment: "criterion met"
- macromoleculeSequence: "ATGGGTGA"
  classAssignment: "criterion not met"
- macromoleculeSequence: "AGAAAACA"
  classAssignment: "criterion not met"
- macromoleculeSequence: "AAGATCGG"
  classAssignment: "criterion met"
- macromoleculeSequence: "ATACCGAT"
  classAssignment: "criterion met"
- macromoleculeSequence: "GGTGGACA"
  classAssignment: "criterion met"

====

Molecular target: Stb5 (UniProt P38699)
Sequence: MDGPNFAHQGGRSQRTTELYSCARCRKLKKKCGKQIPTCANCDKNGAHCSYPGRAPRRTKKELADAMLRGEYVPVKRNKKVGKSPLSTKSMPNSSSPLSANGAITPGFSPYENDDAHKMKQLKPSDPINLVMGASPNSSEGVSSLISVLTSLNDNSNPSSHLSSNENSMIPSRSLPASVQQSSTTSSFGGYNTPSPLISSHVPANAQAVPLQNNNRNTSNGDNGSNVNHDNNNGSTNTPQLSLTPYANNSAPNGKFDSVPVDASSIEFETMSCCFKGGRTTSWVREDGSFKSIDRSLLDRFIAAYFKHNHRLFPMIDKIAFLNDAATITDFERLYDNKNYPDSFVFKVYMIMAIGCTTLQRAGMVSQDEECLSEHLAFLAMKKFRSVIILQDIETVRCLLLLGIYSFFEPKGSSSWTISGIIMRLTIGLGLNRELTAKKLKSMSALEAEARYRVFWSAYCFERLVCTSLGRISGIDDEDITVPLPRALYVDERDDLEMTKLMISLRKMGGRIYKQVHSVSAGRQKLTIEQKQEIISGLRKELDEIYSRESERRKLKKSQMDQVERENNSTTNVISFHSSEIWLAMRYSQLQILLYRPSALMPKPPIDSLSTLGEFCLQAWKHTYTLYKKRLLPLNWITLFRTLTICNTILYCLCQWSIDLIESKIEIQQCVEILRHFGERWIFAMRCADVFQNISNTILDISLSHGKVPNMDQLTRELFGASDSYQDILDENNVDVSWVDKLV
Assay: PBM E-score (8-mer binding enrichment) (E-score (-0.5 to 0.5)); higher = stronger / more preferred TF binding
Conditions: protein concentration: 200 nM; construct: GST-full length
Over roughly 33,000 sequences, “E-score (-0.5 to 0.5)” has its median near -0.054; the highest 2% begin near 0.35. This is one part of a sample in which the highest values are shown more often than they occur.
Examples of sequences with documented PBM E-score follow.

- macromoleculeSequence: "CGGGTGTC"
  PBM E-score: 0.00649
- macromoleculeSequence: "ACCGCCGT"
  PBM E-score: 0.38
- macromoleculeSequence: "ACCCGCTA"
  PBM E-score: 0.0951
- macromoleculeSequence: "AAGTGCGA"
  PBM E-score: 0.187
- macromoleculeSequence: "CTGGTGTC"
  PBM E-score: -0.178
- macromoleculeSequence: "AAAACACC"
  PBM E-score: 0.353
- macromoleculeSequence: "ACCGCCGA"
  PBM E-score: 0.405
- macromoleculeSequence: "AGAGTCCT"
  PBM E-score: -0.216
- macromoleculeSequence: "AACCGTTC"
  PBM E-score: 0.128
- macromoleculeSequence: "AGGGTGTC"
  PBM E-score: -0.106
- macromoleculeSequence: "AGGCGGTC"
  PBM E-score: 0.258
- macromoleculeSequence: "AGGCGGTA"
  PBM E-score: 0.287
- macromoleculeSequence: "CCCCGCTA"
  PBM E-score: 0.399
- macromoleculeSequence: "ACCGCCTG"
  PBM E-score: 0.25
- macromoleculeSequence: "GAAAGGCA"
  PBM E-score: 0.126
- macromoleculeSequence: "AGCGCCGC"
  PBM E-score: 0.41
- macromoleculeSequence: "GGCACCCA"
  PBM E-score: -0.036
- macromoleculeSequence: "AAGGTCCG"
  PBM E-score: 0.442
- macromoleculeSequence: "ACCGCCTA"
  PBM E-score: 0.206
- macromoleculeSequence: "CGGACAAC"
  PBM E-score: 0.144
- macromoleculeSequence: "AGAGTCCC"
  PBM E-score: 0.0723
- macromoleculeSequence: "AGGAGGGG"
  PBM E-score: -0.302
- macromoleculeSequence: "ACGAGCGT"
  PBM E-score: -0.163
- macromoleculeSequence: "CACCGGAG"
  PBM E-score: 0.379
- macromoleculeSequence: "ATCGGGGG"
  PBM E-score: 0.289
- macromoleculeSequence: "AAAACACG"
  PBM E-score: -0.0278
- macromoleculeSequence: "CAGGTCCG"
  PBM E-score: 0.237
- macromoleculeSequence: "CGCGTCTC"
  PBM E-score: 0.0131
- macromoleculeSequence: "CCGCGGGC"
  PBM E-score: 0.335
- macromoleculeSequence: "CTCCGGAG"
  PBM E-score: 0.283
- macromoleculeSequence: "CAAGATGA"
  PBM E-score: -0.286
- macromoleculeSequence: "AGCGGGGC"
  PBM E-score: 0.356
- macromoleculeSequence: "ACTGAAGC"
  PBM E-score: -0.111
- macromoleculeSequence: "CCCTCACC"
  PBM E-score: -0.225
- macromoleculeSequence: "CACGCCGG"
  PBM E-score: 0.268
- macromoleculeSequence: "ACACCGAT"
  PBM E-score: 0.447
- macromoleculeSequence: "AGCTTTTG"
  PBM E-score: -0.139
- macromoleculeSequence: "AGCGCCAC"
  PBM E-score: 0.162
- macromoleculeSequence: "GCCGCCGA"
  PBM E-score: 0.329
- macromoleculeSequence: "CCACCGAC"
  PBM E-score: 0.346
- macromoleculeSequence: "TAAATCTA"
  PBM E-score: -0.0639
- macromoleculeSequence: "AAACCGAC"
  PBM E-score: 0.222
- macromoleculeSequence: "CGGCGGCC"
  PBM E-score: 0.242
- macromoleculeSequence: "GGCCGTTA"
  PBM E-score: 0.213
- macromoleculeSequence: "GCAGAGTA"
  PBM E-score: -0.202
- macromoleculeSequence: "AGCGCCCG"
  PBM E-score: 0.198
- macromoleculeSequence: "CAAACACC"
  PBM E-score: 0.352
- macromoleculeSequence: "ACCGCAGT"
  PBM E-score: 0.206
- macromoleculeSequence: "CGCCGGAC"
  PBM E-score: 0.396
- macromoleculeSequence: "AACGTCCA"
  PBM E-score: -0.0958
- macromoleculeSequence: "CGGCGGTC"
  PBM E-score: 0.355
- macromoleculeSequence: "ACCGCCGC"
  PBM E-score: 0.383
- macromoleculeSequence: "CGCGGGGC"
  PBM E-score: 0.321

Hey, just so you know, these numbers are from the supplement of paper PMC3334620.
